Hey, just so you know, these numbers are from ChEMBL document CHEMBL1201862.

# System: K562
# PROCEDURE TEXT: NCI tumour cell line growth inhibition, 48 h
Calls of active or inactive are those of the source. Cut-off read from the data, not from the text of the source: active = GI50 up to about 1.1 µM and inactive = higher.
MEASUREMENT NAME: GI50

CNC(=O)OCc1cnc([N+](=O)[O-])n1C | > 100 µM (inactive)
CCOc1ccc(N/C(=C(/C(Cl)=C(/Cl)N2CCCCC2)[N+](=O)[O-])n2nnc3ccccc32)cc1 | 17.4 µM (inactive)
C=CCC(C)C12CCNC(Cc3ccc(O)cc31)C2C (stereo unspecified) | 41.3 µM (inactive)
Cn1cnc(N2CCCC2)c(C#N)c1=S | > 100 µM (inactive)
CCCCSCc1nc2nc(Cl)c(Cl)nc2[nH]1 | 24 µM (inactive)

Okay, now this compound:
Incoming: Reported GI50 for NC1N=C(c2ccc(Cl)cc2)C2=C(N1)c1ccccc1CC2 (stereo unspecified) : what is it?
Outgoing: 3.48 µM (inactive)
